Consider the following molecules and their measured log10(EC50) readings.
tested on: Human immunodeficiency virus 2; test: Antiviral activity against HIV2 ROD infected in human CEM-SS cells assessed as inhibition of virus-induced cytopathic effect by XTT assay; type: functional, organism-based, ISOLATE ROD; conditions: Human immunodeficiency virus 2, ISOLATE ROD, CEM-SS; read-out: EC50
A difference of one corresponds to tenfold EC50; all values are log10 with EC50 in nM.

A selection of reference data follows.
[[record]]
molecule = "Cc1cc(C)cc(C(=O)c2c(C)c(=O)[nH]c(=O)n2CC2CC=CC2)c1"
assay_readout = "log10(EC50)"
quantitative_result = 4.47

[[record]]
molecule = "Cc1cc(C)cc(Oc2c(C(C)C)c(=O)[nH]c(=O)n2CC2=CCCC2)c1"
assay_readout = "log10(EC50)"
quantitative_result = 2.70

[[record]]
molecule = "Cc1cc(C)cc(C(=O)c2c(C(C)C)c(=O)[nH]c(=O)n2CC2CCC2)c1"
assay_readout = "log10(EC50)"
quantitative_result = 2.60

[[record]]
molecule = "Cc1cc(C)cc(Sc2c(C(C)C)c(=O)[nH]c(=O)n2CC2=CCCC2)c1"
assay_readout = "log10(EC50)"
quantitative_result = 2.70

[[record]]
molecule = "CCc1c(Sc2cc(C)cc(C)c2)n(CC2CCCCC2)c(=O)[nH]c1=O"
assay_readout = "log10(EC50)"
quantitative_result = 4.43


In: Provide one value: measured log10(EC50) of CCc1c(Oc2cc(C)cc(C)c2)n(CCC2=CCCC2)c(=O)[nH]c1=O
Out: 4.45

In: Quickly give me recorded log10(EC50) for CCc1c(C(=O)c2cc(C)cc(C)c2)n(CC2CC2)c(=O)[nH]c1=O
Out: 2.70

In: Answer with the recorded log10(EC50) for the molecule listed here: Cc1cc(C)cc(C(=O)c2c(C(C)C)c(=O)[nH]c(=O)n2CC2=CCCC2)c1
Out: 2.00

In: Let me know recorded log10(EC50) for Cc1cc(C)cc(Oc2c(C(C)C)c(=O)[nH]c(=O)n2CC2CCCCC2)c1 , thanks.
Out: 3.20

In: Annotate the molecule CCc1c(Sc2cc(C)cc(C)c2)n(CC2CC=CC2)c(=O)[nH]c1=O with its measured log10(EC50).
Out: 2.70

In: Complete the entry with log10(EC50) for Cc1cc(C)cc(Oc2c(C(C)C)c(=O)[nH]c(=O)n2CCC2CC=CC2)c1
Out: 3.15

---

# Lookup of reported IC50 keyed by entry
biological target: Human immunodeficiency virus type 1 reverse transcriptase (Human immunodeficiency virus 1, UniProt Q72547, K103N); assay: Inhibition of HIV1 reverse transcriptase K103N mutant assessed as 32P-labeled GMP incorporation into nascent DNA strand
Entry rule: numbers only, all in µM.

[[record]]
smiles_string = "CCc1c(Sc2cc(C)cc(C)c2)n(CCC2CC=CC2)c(=O)[nH]c1=O"
assay_readout = "IC50"
quantitative_result = 141

[[record]]
smiles_string = "CCc1c(Sc2cc(C)cc(C)c2)n(CC2=CCCC2)c(=O)[nH]c1=O"
assay_readout = "IC50"
quantitative_result = 66.8

[[record]]
smiles_string = "CCc1c(Sc2ccccc2)n(CC2CC=CC2)c(=O)[nH]c1=O"
assay_readout = "IC50"
quantitative_result = 17.1

[[record]]
smiles_string = "Cc1cc(C)cc(Oc2c(C(C)C)c(=O)[nH]c(=O)n2CC2CC2)c1"
assay_readout = "IC50"
quantitative_result = 0.067

[[record]]
smiles_string = "CCc1c(C(=O)c2cc(C)cc(C)c2)n(CCC2CC=CC2)c(=O)[nH]c1=O"
assay_readout = "IC50"
quantitative_result = 1.9


In: Read the entry Cc1cc(C)cc(Oc2c(C(C)C)c(=O)[nH]c(=O)n2CC2CCCC2)c1 and write its reported IC50.
Out: 1.14

In: Determine its reported IC50: Cc1cc(C)cc(C(=O)c2c(C(C)C)c(=O)[nH]c(=O)n2CC2=CCCC2)c1
Out: 1.6

In: Give a short answer stating reported IC50 for CCc1c(C(=O)c2cc(C)cc(C)c2)n(CC2CCCC2)c(=O)[nH]c1=O .
Out: 6.9
